These measurements were taken from patent US5811533.

System: VEGF165 (recombinant human vascular endothelial growth factor, 165 aa form) (Homo sapiens), P15692-4
Sequence: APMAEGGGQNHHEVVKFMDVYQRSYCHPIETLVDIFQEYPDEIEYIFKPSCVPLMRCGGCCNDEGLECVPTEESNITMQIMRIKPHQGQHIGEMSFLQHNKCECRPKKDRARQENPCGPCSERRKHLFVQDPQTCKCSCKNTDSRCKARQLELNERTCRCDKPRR
Experiment: filter
Conditions: random pool
Entries and their measured Kd follow.
Please give a number only; it is taken to be in nM.

// Kd value for GGGAGCUCAGAAUAAACGCUCAANNNNNNNNNNNNNNNNNNNNNNNNNNNNNNUUCGACAUGAGGCCCGGAUCCGGC [random RNA pool (30N)] : 200

Below: the item to evaluate.
// Kd value for ATCCGCCTGATTAGCGATACTNNNNNNNNNNNNNNNNNNNNNNNNNNNNNNNNNNNNNNNNACTTGAGCAAAATCACCTGCAGGGG [starting random ssDNA pool] : 200
